- Target: CECR2 (Homo sapiens, UniProt Q9BXF3)
- Sequence (Q9BXF3 434-538 limits assumed): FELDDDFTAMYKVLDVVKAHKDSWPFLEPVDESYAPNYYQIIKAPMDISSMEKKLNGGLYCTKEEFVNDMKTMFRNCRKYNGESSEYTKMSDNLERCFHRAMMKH
- Test description: BROMOscan ligand-binding assay
- Test conditions: CECR2
Measured parameter: pKd
pKd here: minus log base 10 of the concentration, concentration in moles per litre.

Ask: Request body: readout pKd, system CECR2 (Homo sapiens, UniProt Q9BXF3), query COc1cc(C#N)ccc1S(=O)(=O)Nc1ccc2c(c1)cc(C)c(=O)n2C . Return the value.
Result: 4.92

###

- Target: BRD7 (Homo sapiens, UniProt Q9NPI1)
- Sequence (Q9NPI1 131-235 limits assumed): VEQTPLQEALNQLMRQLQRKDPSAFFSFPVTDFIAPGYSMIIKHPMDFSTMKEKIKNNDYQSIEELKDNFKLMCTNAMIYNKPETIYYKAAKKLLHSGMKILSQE
- Test description: BROMOscan ligand-binding assay
- Test conditions: BROMOscan, BRD7
pKd: −log10 of the molar value.
Measured parameter: pKd

Ask: Reported pKd, compound O=C(C=CN1[C@H]2CC[C@@H]1c1ncnc(NC3CC3)c1C2)c1ccccc1O [PFI-3 D1] : ____
Result: < 4.52
